test-description: In Vitro Stability Assay—Mouse Plasma
Assay type: in vitro ADME
measurement-conditions: attachment position L11B
*1 amine or outer side, *2 acyl side, *3 side chain or, on linkers, in order; H or OH if unused. Where a SMILES comes first, the peptide text is derived from it. [ ]: non-standard residue; d: D form. The star is where a group is joined. Dolaproine = CO[C@@H]([C@@H]1CCCN1)[C@@H](C)C(=O)O; Dil = CC[C@H](C)[C@H](NC)[C@@H](CC(=O)O)OC; PABC = O=C(OCc1ccc(N[*:1])cc1)[*:2]; Doe = c1ccc(C[C@H](N*)c2nccs2)cc1; Glyceroyl(2S) = O=C([C@@H](O)CO)*; Cit = NC(=O)NCCC[C@H](N)C(=O)O; X1 = NCCOCCOCCOCCOCCOCC*; Aib = CC(C)(N)C(=O)O; Moc = COC(=O)*
quantity: DAR after plasma incubation for 3 to 4.5 days
Reply: number alone, nothing else.

Known results for compounds:
INSERT INTO measurements (compound, value_reported) VALUES
  ('CC[C@H](C)[C@@H]([C@@H](CC(=O)N1CCC[C@H]1[C@H](OC)[C@@H](C)C(=O)N[C@@H](Cc1ccccc1)c1nccs1)OC)N(C)C(=O)[C@@H](NC(=O)C(C)(C)NC(=O)OCc1ccc(NC(=O)[C@H](CCCNC(N)=O)NC(=O)[C@@H](NC(=O)[C@H](CCCCN)NC(=O)CNC(C)=O)C(C)C)cc1)C(C)C [Example 37] (Ac-GKV[Cit][PABC][Aib]V[Dil][Dolaproine]-Doe)', 0.85),
  ('CC[C@H](C)[C@@H]([C@@H](CC(=O)N1CCC[C@H]1[C@H](OC)[C@@H](C)C(=O)N[C@@H](Cc1ccccc1)c1nccs1)OC)N(C)C(=O)[C@@H](NC(=O)C(C)(C)NC(=O)OCc1ccc(NC(=O)[C@H](CCCNC(N)=O)NC(=O)[C@@H](NC(=O)[C@H](CCCCN)NC(=O)[C@H](N)CO)C(C)C)cc1)C(C)C [Example 39] (H-[dS]KV[Cit][PABC][Aib]V[Dil][Dolaproine]-Doe)', 1.53),
  ('CC[C@H](C)[C@@H]([C@@H](CC(=O)N1CCC[C@H]1[C@H](OC)[C@@H](C)C(=O)N[C@@H](Cc1ccccc1)c1nccs1)OC)N(C)C(=O)[C@@H](NC(=O)C(C)(C)NC(=O)OCc1ccc(NC(=O)[C@H](CCCNC(N)=O)NC(=O)[C@@H](NC(=O)[C@H](COCCOCCOCCOCCOCCOCCN)NC(C)=O)C(C)C)cc1)C(C)C [Example 48] (Ac-S(X1)V[Cit][PABC][Aib]V[Dil][Dolaproine]-Doe)', 0),
  ('CC[C@H](C)[C@@H]([C@@H](CC(=O)N1CCC[C@H]1[C@H](OC)[C@@H](C)C(=O)N[C@@H](Cc1ccccc1)c1nccs1)OC)N(C)C(=O)[C@@H](NC(=O)C(C)(C)NC(=O)OCc1ccc(NC(=O)[C@H](CCCNC(N)=O)NC(=O)[C@@H](NC(=O)[C@H](CCCCN)NC(=O)[C@@H](O)CO)C(C)C)cc1)C(C)C [Example 42] ({Glyceroyl(2S)}-KV[Cit][PABC][Aib]V[Dil][Dolaproine]-Doe)', 1.60);

Read the next record carefully.
Note to self: DAR after plasma incubation for 3 to 4.5 days recorded for CC[C@H](C)[C@@H]([C@@H](CC(=O)N1CCC[C@H]1[C@H](OC)[C@@H](C)C(=O)N[C@@H](Cc1ccccc1)c1nccs1)OC)N(C)C(=O)[C@@H](NC(=O)C(C)(C)NC(=O)OCc1ccc(NC(=O)[C@H](CCCNC(N)=O)NC(=O)[C@@H](NC(=O)[C@H](CCCCN)NC(=O)OC)C(C)C)cc1)C(C)C [Example 32] (Moc-KV[Cit][PABC][Aib]V[Dil][Dolaproine]-Doe) was 0.08
